Test system: MOLT-4
ASSAY SUMMARY: NCI tumour cell line growth inhibition, 48 h
Active and inactive are the calls of the source. Cut-off read from the data, not from the text of the source: active = GI50 up to about 1.1 µM and inactive = higher.
I would appreciate it if you answered using one of these outcomes: yes for active, no for inactive

Input: Which outcome did this test record for the compound `COc1ccc2oc(-c3cccnc3)cc(=O)c2c1` ?
Output: no

Input: Hello, I am checking results. What call was entered for `COc1cc(NCc2ccc3oc(=O)c(-c4ccccc4)nc3c2)cc(OC)c1OC` ?
Output: no

Input: Hi, sorry to bother you, what did the test record for COC(=O)C(/C(=N/N)C(=O)Nc1cc(Cl)ccc1Cl)c1nc2ccc([N+](=O)[O-])cc2nc1O (stereo not given) ?
Output: no

Values were extracted from ChEMBL document CHEMBL1201862.
